test: Bioavailability in human Karpas299 cells xenografted SCID beige mouse at 20 mg/kg; assay type: ADME, organism-based, KARPAS-299; conditions: in vivo
reportedMetric: bioavailability (%)
Write the number in % without appending the unit.

Noted for COc1cc(N2CCC(N3CCN(C)CC3)CC2)ccc1Nc1ncc(Cl)c(Nc2ccccc2S(=O)(=O)C(C)C)n1 [TAE-684] : its bioavailability reads 60

###

tested on: BaF3; experiment: Inhibition of mouse wild type BaF3/WT Luc+ cell proliferation; assay type: functional, cell-based
reportedMetric: IC50
Please answer in the form of a number followed by its unit of measurement.

// IC50 value for COc1cc(N2CCC(N3CCN(C)CC3)CC2)ccc1Nc1ncc(Cl)c(Nc2ccccc2S(=O)(=O)C(C)C)n1 : 2750 nM

###

assay: Elimination half life in human Karpas299 cells xenografted SCID beige mouse at 20 mg/kg, po; type: ADME, organism-based, KARPAS-299; parameters: dose 20 mg/kg, route oral; details: in vivo
reportedMetric: half-life (h)
Express it in h; write the number only.

Measured half-life, COc1cc(N2CCC(N3CCN(C)CC3)CC2)ccc1Nc1ncc(Cl)c(Nc2ccccc2S(=O)(=O)C(C)C)n1 [TAE-684] : 12

###

assay: Antiproliferative activity against mouse Ba/F3 NPM-ALK cells assessed as luciferase expression after 2 to 3 days; format: functional, cell-based
reportedMetric: pIC50
Friendly reminder that pIC50 comes from taking -log10 of the concentration in mol/L.

Memo: COc1cc(N2CCC(N3CCN(C)CC3)CC2)ccc1Nc1ncc(Cl)c(Nc2ccccc2S(=O)(=O)C(C)C)n1 , reported pIC50: 8.52

###

experiment: Cmax in human Karpas299 cells xenografted SCID beige mouse at 20 mg/kg, po; assay type: ADME, organism-based, KARPAS-299; parameters: dose 20 mg/kg, route oral; details: in vivo
reportedMetric: Cmax (nM)
Write the answer as a number in nM, unit excluded.

Please fill in: Cmax reported for COc1cc(N2CCC(N3CCN(C)CC3)CC2)ccc1Nc1ncc(Cl)c(Nc2ccccc2S(=O)(=O)C(C)C)n1 = 800

Hey, just so you know, these numbers are from ChEMBL document CHEMBL1156430.
